Target: Recombinant human IL4I1 (Homo sapiens, UniProt Q96RQ9)
Construct: purchased R&D Systems, Inc
Sequence (Q96RQ9 22-567): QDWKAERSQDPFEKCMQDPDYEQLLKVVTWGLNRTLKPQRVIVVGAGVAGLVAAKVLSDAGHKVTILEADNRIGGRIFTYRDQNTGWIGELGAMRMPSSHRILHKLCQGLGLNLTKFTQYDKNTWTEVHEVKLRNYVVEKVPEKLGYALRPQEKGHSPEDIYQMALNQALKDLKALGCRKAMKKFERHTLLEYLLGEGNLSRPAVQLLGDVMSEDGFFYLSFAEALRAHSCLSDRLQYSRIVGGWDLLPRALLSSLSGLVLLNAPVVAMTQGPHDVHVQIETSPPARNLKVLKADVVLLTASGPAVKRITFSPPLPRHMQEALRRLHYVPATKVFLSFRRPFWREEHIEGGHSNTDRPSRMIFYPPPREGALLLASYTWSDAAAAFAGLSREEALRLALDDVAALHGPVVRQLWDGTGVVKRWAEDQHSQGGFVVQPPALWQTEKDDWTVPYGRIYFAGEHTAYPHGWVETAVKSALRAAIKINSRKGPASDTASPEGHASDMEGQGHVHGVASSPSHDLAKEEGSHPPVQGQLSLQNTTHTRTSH
Assay: Evaluation of Ki, fluorometric IL4I1 assay
Type: biochemical
Settings: average of three experiments
Returns: string. Value is y if measured Ki is below 20 µM, and n if it is greater than or equal to it.

Please state whether Ki is below 20 µM for CCOC(=O)C(Cc1c(Cl)cccc1Cl)N1CCCCC1 (centres unmarked) [Cp 7]
y

Please state whether Ki is below 20 µM for CCOC(=O)C(Cc1ccccc1)Nc1ccccc1C(O)C(=O)OCC (centres unmarked) [Cp 16]
n

Please state whether Ki is below 20 µM for CCCNC(Cc1ccccc1)C(=O)OCC (centres unmarked) [Cp 2]
n

Please state whether Ki is below 20 µM for CCOC(=O)C(Cc1ccccc1)Nc1ccccc1 (centres unmarked) [Cp 15]
n

Please state whether Ki is below 20 µM for CCOC(=O)C(Cc1ccccc1)N(CC)CC (centres unmarked) [Cp 13]
n

* * *

I'd be grateful if you could share measured Ki for these entries.
Molecular target: Recombinant human IL4I1 (Homo sapiens, UniProt Q96RQ9)
Construct: purchased R&D Systems, Inc
Assay: Evaluation of Ki, fluorometric IL4I1 assay
Type: biochemical
Conditions: compounds disclosed in WO2010/06685; average of three experiments
All answers are understood in µM, so give the number only.

Retrieve Ki measured for CCOC(=O)[C@@H](N)Cc1ccccc1 [L-phenylalanine ethyl ester, reference compound] and print it.
3100

Retrieve Ki measured for NC(Cc1ccccn1)C(=O)O (stereo not drawn) [2′-aza-phenylalanine, reference compound] and print it.
2800

Retrieve Ki measured for CC(=O)N[C@@H](Cc1ccccc1)C(=O)O [N-acetyl-phenylalanine, reference compound] and print it.
2100
